Source of measurements: the nanobody polyreactivity screen of Harvey et al. (2022)

# ASSAY_NAME: yeast display, Sf9 membrane polyspecificity reagent, FACS + sequencing; frameworks hold sequencing errors
ENDPOINT: polyreactivity (PSR sort gate)

PRIMARY_SEQUENCE	VAL
QVQLVESGVGLVQAGGSLSLSCAASGSTFTRYAMGWYRQAPGKERELVASISRSGNTYYADSVKGRFTISRDNAKNTVYLQMNSLKPEDSAVYYCAAKRKSYYSYNFDYWGQGTQVTVSS	high polyreactivity
QVQLVESGGGLVPAGGSLRLSCAASGRIYARNAMGWYRKAPGKERDLVAAISSRGSSTYYADSVKGRFTISRDTAKNTVSLQMNSLKPEDTAVYYCNAYYSVYPPGYDYWGQGPQVTVSS	high polyreactivity
QVQLVESGGGLVHAGGSLRLSCAASGSIFTFYTMGWYRQAPGKERELVAAINWSGSRTYYADSVKGRFTISRDNAKNTVYLQMNSLKPEDTAVYYCAAYYYTGPTTVESDYWGQGTQVTVSS	high polyreactivity

----------
# ASSAY_NAME: yeast display, Sf9 membrane polyspecificity reagent, FACS + sequencing; frameworks hold sequencing errors

PRIMARY_SEQUENCE	polyreactivity (PSR sort gate)
QVQLVESGGGLVQAGGSLRLSCAASGITFAYYAMGWYRQAPGKERELVAAITGDGGSTYYADSVKGRFTISRDNAKNTVYLQMNSLKPEDTAVYYCNAELSDYRYDWWDYDYWGQGTQVTVSS	high polyreactivity
QVQLVESGGGLDQAGGSLRLSSAASGSIVDSNAMGWYRQAPGKASEMVASITSSGGSTYYADSVKGRFTISRDNAKNTVYLQMNSVKPEDTAVYYCAPKQAQSRYRLWSTSGYWGQGTQVTVSS	high polyreactivity
QVQLVESGGGLVQAGGSLRLSCAASGLILGINAMGWYRQAPGKERELVAAISSSGGRTSYADSVKGRFTISRDNAKNTVYLQMNILKPEDTAVYYCAKRRTTYSHYDYWGQGTQVSVSS	low polyreactivity
QVQLVESVGGLVQAGGSLRLSCAASGITSGTYAMGWYRQAPGKERELVAAISSSGGRTYYADSVKGRFTISRDNAKNTVYLQMNSLKPEDTAVYYCAARIRLSLRTGYDYWGQGTQVTVSS	high polyreactivity
QVQLVESGGGLVQPGGSLRLSCAASGSIFPYYAKGWYRKAPGKERELVADITSSGGSTYYADSVMGRFTISRDNAKNTVYLQMNSLKPEDTAVYYCAADGAVVSSSRKFGYWGQGTQVTVSS	low polyreactivity

----------
# ASSAY_NAME: yeast display, Sf9 membrane polyspecificity reagent, FACS + sequencing; frameworks hold sequencing errors

PRIMARY_SEQUENCE	polyreactivity (PSR sort gate)
QFQLVESGGGLVQAGGRLRLSCAASGSIFYRNAMGWYRQAPGKERELVAAISASGGSTYYADSVKGRFTISRDNEKNTVYLQMIILKPEDTAVYYCDVEYRKSRSYAPMGYWGQGTQVTVSS	high polyreactivity
QVQLVESVGGLVQAGGSLRLSCAASGRTFLYYTMGWYRQAPGKERELVAAISTSGGSTNYADSVKGRFTISRDNAKNTVYLQMNSLKPEDTAVYYCAAETSTNPEAYEYWGQGTQVTVSS	low polyreactivity
QVQLVESGGGLVQAGGSLRLSCAASGFIFRYYARGWYRQAPGKERELVAAISSTGGSTSYADSVKGRFTISRDNAKNTVYLQLNSQKPEDTAVYDCAADYWIRRRTYGQLYRPYYYWGQGTQVTVSS	high polyreactivity
QVQLQESGGGLVQAGGSLRLSCAASCTISQEDWMGWYRQAPGKEREFVAAIGLGSNTNYADSLKGRFTISRDNAKNTVYLQMNSLKPEDTAVYYCAVTVWQYSDHVYRGQGTQVTVSS	low polyreactivity
QVQLVESGGGLVQAGGSLRLSCAASGFIFQPYAMGWYRQAPGKERELVAAITSRGGRTYYADSVQGRFTICRDNAKNTVYLQMNSLKPEDTSVYYCNADIYASEYYYWGQGTQVTVSS	low polyreactivity
QVQLVESGGGLVQAGGSLRLSCAASGRTFSYNTMGWYRQAPGTERELVARITWGGGSTNYADSVKGRFTISRDNAKNTFYLQMNSLKPEDTAVYYCAAGPSVPYGPQKVDYWGQGTQVTVSS	low polyreactivity
QVQLVESGAGLVQAGGSLRLSCAASGRTFYNNAMGWYRQAPGKERELVAAISQRTGRTYYADSVKGRFTISRDNAKNTVYLQMNSLKPEDTAVYYCAARTLSYEYNYWGQGTQVTVSS	high polyreactivity
QVQLVESGGGLVQAGGSLRLSCAASGFIFRRYAMGWYRQAPGKERELVAAITWSGGSTYYADSVKGRFTISRDNAKNTVYLQMNSLKPEDTAVYYCNRASLPSVWGYDYWGQGTQVTVSS	high polyreactivity
QVQLVESGGGLVQAGGSLRLSCAASGITLTKYGMGWYRQAPGKERELVAAISGSGGSTYYADSVKGRFTISRDNAKNTVYLQMNSLKPEDTAVYYCAARALYPRYYYWGQGTQVTVSS	high polyreactivity
QVQLVESGGGLVQAGGSLRLSCAASGFILGGYAMGWYRQAPGKERELVAAISWSSGSTYYADSVKGRFTISRDNAKNTVYLQMNSLIPEDTAVYYCAAVGAYDYWGQGTQVTVSS	low polyreactivity
QVQLVESGGGLVQAGGSLRLSCAASGRIFDKNAMGWYRQAPGKERELVAAINRSGGRTYYADSVKGRFTISRDNAKNTVYLQMNSLKPEDTAVYYCAADTQGSRYDYWGQGTQVTVSS	high polyreactivity
QVQLVESRGGLVQAGGRLRLSCAASGIIFPRNAMGWYRQAPGKERELVAAITNTGSTKYADSVKGRFTISRDNEKNTVYLHMNSLKPEDTAVYFCAKELCSVPSPSLYDYWGQGTQVTVSS	low polyreactivity
QVQLVESGGGLVQAGGSLRLSCAASGRIFWDNAMGWYRQAPGKVRELVAVMNSGDSTNYADSVKGRFTISRDNAKNTVYLQMNSLKPEDTAVYYCATDFIGVIYDYWGQGTQVTVSS	low polyreactivity
QVQLVESGGGLVQAGGSLRLSCAASGSTFTIYAMGWYRQAPGTERELVATIRAGGGRTSYADSVKGRFTISRDNAKNTVYLQMNSLKPEDTAVYYCAVYVRPTRYGYWGQGTQVTVSS	high polyreactivity
QVQLVESGGGLVQAGGSLRLSCAASGSSFISNTMGWYRQAPGKERELVAAISSGGDTSYADSVKGRFTISRDNAKNTVYLQMNILKPEDTAVYYCNVDTSATSYSSEYDYWGQGTQVTVSS	low polyreactivity
QVQLVESGGGLVQAGGSLRLTCAASGRTFSYNAMGWYRQAPGKERELVAAISYDGGRTYYADSVKGRFTISRDNAKNSVYLQMNSLKPEDTAVYFCAAYPYRCPHPWTIGDYWGQGTQVTVSS	low polyreactivity
QVQHVESGGGLVQAGGSLRLICAASGFSFILYAMGWYRQARGKERELVAAISSSGGRRYYADSVKGRFTISRDNANNTVYIQMNSLKPEDTAVYYCNAVRTVNDYHYDYWGQGTQVTVSS	high polyreactivity
QVQLVESGGGLVQAGGSLRLSCAASGGIISSYVMGWYRQAPGKERELVAAISRSGGSTYYADSVKGRFTISRDNAKNTVYLQMNSLKPEDTAVYFCAAVLQTRYNYWGQGTQVTVSS	high polyreactivity
QDQLVESVGGLVQAGGSLRLSCAASGRTIDPNAMGWYRQAPGKERELVAAITRTGVRTYYADSVKGRFTISRDNAKNTVYLQMNSLKPEDTAVYYCAASYSGRQDRYPHYDYWGQGTQVTVSS	low polyreactivity
QVQLVESGGGLVQAGGSHRLSCAASGFTFSAYTMGWYRQAPGKERELVAAISWRGTSTYYADSVKGRFTISRDNAKNTVYLQMNSLKPEDTAVYYCAVRWPSARIPVKLDYWGQGTQVNVSS	high polyreactivity
QVQLVESGGGLVQAGGRLRLSCAASGITFRYYAMGWYRQAPGKERELVAAITRSGTSTYYADSVKGRFTISRDNAKNTVYLQMNSLKPEDTAVYYCNAEYYHSSTGDDFDYWGQGTQVTVSS	low polyreactivity

----------
# ASSAY_NAME: yeast display, Sf9 membrane polyspecificity reagent, FACS + sequencing; frameworks hold sequencing errors
ENDPOINT: polyreactivity (PSR sort gate)

PRIMARY_SEQUENCE	VAL
QVQLVESGGGLVQAGGSLRLSCAASGRIFVSNDMGWYRQAPGKERELVAAISWSDDSTHYADSVKGRFTISRDNAKNTVYLQMNSLKPEDTAVYYCNKQRYYSTWRYDYWGQGTQVTVSS	low polyreactivity
QVQLVESGAGLVQAGGSLRLSCAASGSTFSHNAMGWYRQEPGKESELVAAISWSGGGTYADSVKGRFTISRDNAKNTVYLQMNSLIPEDTAVYYCNKVSYPSTSSSWFDYWGKGTQVTVSS	low polyreactivity
QVQLVESGGGLVQAGGSLRLSCAASGSIFLQYAMAWYRQAPGKERELVAAISWSGGSTYYAYSVKGRFTISRDNAKNTVYLQMNSLKPEDTAVYYCAAPITPYSHYRMDYWGQGTQVTVSS	low polyreactivity
QVQLVESGGGLVQAGGSLRLSCAASGSTFWYYVMGWYRQAPGKERELVAAISTRGDSTYYADSVKGRFTISRDNAKITVYFQMNSLKPEDTAVFDCAKSRQYSGRVRFDYWGKGTQVTVSS	low polyreactivity
QVQLVESGGGLVQAGGSLRLSCAASGSILHLYAMGWYRQAPGKERELVARINSGGTTNYADSVKGRFTISRDNAKNTVYLQMNSLKPEDTAVYYCAARFTPYITSDDGHYDYWGQGTQVTVSS	low polyreactivity
QVQLVESGGGLVQAGGSLRLSCAASGRIFYWNAMGWYRQAPGKEREFVAAISWSGGSTYADSVKGRFTISRDNAKNTVYLQMNSLKPEDTAVYYCATRVYRSFRAYDYWGQGTQVTVSS	high polyreactivity
QEQLVESGGGLDQAGGSLRLSCAASGSTFYAYAMGWSRQATGKETELVAAISSDGTNYADSVKGRFTISRDNAKNTVYLQMNCLKPEDTAVYYCAADLLLTSSQDNDYWGQGTQVTVSS	low polyreactivity
QVQLVESGGGLVQAGGSLRLSCAASGSIFTSNAMGWYRQAPGKERELVAVISRRGGSTYYADSVKGRFTISRDNAKNTVYLQMNSLKPEDTAVYYCARRPYSYTRYEYWGQGTQVTVSS	low polyreactivity
QVQHVESGGGLVQAGGSLRLSCAASGSTSPGYAMGWSRQAPGKERELVAAITFRGTRTYYADSVKGRFTISRDNAKNTVYLQMNSQKPEDTAVYYCNVVGYGPNRGRVDYWGQGTQVTVSS	high polyreactivity
QVQLVESVGGLVQAGGSLRLSCAASGIIFWWYAIGWYRQAPGKERELVAAINWSGSSTYYADSVKGRFTISRDNAKNTVYLQMKSLKPEDTAVYYCATAGIIQAESEYLSGYDYWGQGTQVTVSS	high polyreactivity
QVQLEESGGGLVQAGGSHRLSCAASGPTFRRNVMGWSRQAPGKEREFVAAITWSGGNTYYADSVKGRITISRDNAKYTVFLQMYSLKREDTAVYYCNARSAIWGWGYGSYDYWGLGTQVTVSS	low polyreactivity
QVQLVDSGGGLLQAGGSLRLSCAASGRIFVYNAMGWYRQAPGKERELVAAITRGGSTYYADSVKGRFTISRDNAKNTVDLQMNSLKPEDPAGYYCAADYAWVSIYDNVPSAPGYDDWGQGTQGTVSS	low polyreactivity
QVQLVESGGGLVQAGGSLRLSCAASGRIFFLNAMGWYRQAPGKERELVATISWTGGSTYYADSVKGRFTISRDNAKNTVDLQMTSLKPEDTAGYYCAKDGTNWGHAFDSWGQGTEVTVSS	low polyreactivity
QVQLVESGGGLVQAGGSLRLSCAASGLNFWYYAMGWYRQAPGKERELVAAISWGGGSTYYADSVKGRFTISRDNAKNTVYLLMNSLKPEDTAVYYCAADSSYWYGTECDYWGQGTQVTVSS	high polyreactivity
QVQLVESGGGLVQAGGSLRLSCAASGRIFGHYAMGWYRPAPGKERELVAAISTGGSTYYADSVKGRFTISRDNAKNTVYFQMNSLKPEDTAVYFCNKRPVRRKYDYWGQGTHVTVSS	low polyreactivity
QVQLVESGGGLVQAGGSLRLSCAASGFIFADNAMGWYRQAPGKERELVAGITSGGITNYADSVKGRFTISRDNAKNTVYLQMNSLKPEDTAVYYCAVYYRRWFSRYDYWGQGTQVTVSS	low polyreactivity
QVQFVESGGGVVQAGGSLRLSCAASGNIPYWYAMGWSRPAPAKERELVAAISSRGNTYYADSVKGRFTISRDNAKNNVYLQMNSLKQEDTAVYYCAAYAGSFYYWGQGTQVTVSS	high polyreactivity
QVQLLETGGGLVQAGVSLRLSSAASGRTFWTNGMGWYRQAPGKERELVASISTSGGRTYYADSVKGRFTISRDNSKNTVYLQMNSLKPEDTAVYYCAARALSHGARYDYWGQGTQVNVSS	high polyreactivity
QVQLVESGGGLVQAGGSLRLSCAASGSTFPYNARGWYRQAPGKETELVAAISSSGGSTYYADSVKGRFTISRDNAKNTVYLQMNSLKPVDTEVYYCNAVLRYSIYPSSSFSYVGYYYWGQGTQVSVSS	high polyreactivity
QVQLVESGGGLVQAGGSLRLSCAASGRIFDNYVMGWYRQAPGKERELVAAISSGGGTYYADSVKGRFTISRDNAKNTVYVQMNSLKPEDTAVYYCAKRRVYDRSFGRYDYWGQGTQVTVSS	low polyreactivity
QVQLVESGGGLVQAGGSLRFSCAASGSICGGYAMGWYRQAPGKERELVASITKSGDSTYADSVKGRFTISRDNAKNTVYLQMNSLKPEDTAVYYSAADSTFGNFDYWGQGTQVTVSS	low polyreactivity
